Assay: Cytostatic activity against human C8166 cells by MTT assay
Assay type: cell-based
Some molecules, each annotated with its measured CC50.
Number first, unit second.

// known answers, use as guide
>  <structure smiles>
CC(C)CN(C[C@@H](O)[C@H](Cc1ccc(-c2ccncc2)cc1)NC(=O)O[C@H]1CCOC1)S(=O)(=O)c1ccc(N)cc1

>  <CC50>
260 µM

$$$$
>  <structure smiles>
COc1ccc(S(=O)(=O)N(CC(C)C)C[C@@H](O)[C@H](Cc2ccc(-c3ccc(C(C)=O)cc3)cc2)NC(=O)O[C@H]2CCOC2)cc1

>  <CC50>
210 µM

$$$$

Turning now to a further molecule:
GET /values?readout=CC50&item= COc1ccc(S(=O)(=O)N(CC(C)C)C[C@@H](O)[C@H](Cc2ccc(-c3ccc(OC)c(C)c3)cc2)NC(=O)O[C@H]2CCOC2)cc1
170 µM

Data origin, for the record: ChEMBL document CHEMBL1955858
